- protocol.notes: yeast display, Sf9 membrane polyspecificity reagent, FACS + sequencing; frameworks hold sequencing errors

[
  {
    "sequence.text": "QVQLVESGGGLVQAGGSLRLSCAASGLIFYKYAMGWYRQAPGKERELVAAITSGGSTNYADSVKGRFTISRDNAKNTVYLQMNSLKPEDTAVYYCNADYNLYLVVRWWYPPVDYWGQGTQVTVSS",
    "polyreactivity (PSR sort gate)": "low polyreactivity"
  },
  {
    "sequence.text": "QVQLVESGGLLVQAGGSLRLSCAASGRIFTHNATGWYRQAPGKERELVAAISYSGVSTYYADSVKGRFTISRDNAKNTVYLQMNSLKPEDTAVYYCARRYWYPDAFYRYDYWGQGTQVTVSS",
    "polyreactivity (PSR sort gate)": "low polyreactivity"
  }
]

----------
- protocol.notes: yeast display, Sf9 membrane polyspecificity reagent, FACS + sequencing; frameworks hold sequencing errors

[
  {
    "sequence.text": "QVQLVESGGGLVQAGGSLRLSCAASGSTFGSYTMGWYRQAPGKEREFVAAIRWIGGSTYYADSVKGRFTISRDNAKNTVYLQMNSLKPEDTAVYYCNAKRRKHGYYYWGQGTQVTVSS",
    "polyreactivity (PSR sort gate)": "high polyreactivity"
  },
  {
    "sequence.text": "QVQLVETGGGIVQAVGSLRLSCAASGSTFGWNAMGWNRQAPGKERELVAVISSDGRTYYADSVKGRFTISRDNAKNTVYLQMISLKPEDTAVYYCAKRAWGFGGYDYWGQGTQVTVSS",
    "polyreactivity (PSR sort gate)": "low polyreactivity"
  },
  {
    "sequence.text": "QVQLVESGGGLVQAGGSLRLSCAASGSIFVVNTLGWYRQAPGKEREFVAPISYNGGRTSYADSVKGRFTISRDNAKNTVYLQMNSLKPEDTEVYYCAAGGSVPRAYHISYFTQYDYWGQGTQVTVSS",
    "polyreactivity (PSR sort gate)": "low polyreactivity"
  },
  {
    "sequence.text": "QCQLVESGGGLVQAGGSLLLSCAASGFIFNRNAMGWSRQAPGKEREFVSAISTLGAGTYYADSVKGRFTISRDNAKNTVYLQMNSLKPEDTAVYYCAADIFRYGYYNRYSKVGYDYWGQGTQVTVSS",
    "polyreactivity (PSR sort gate)": "high polyreactivity"
  },
  {
    "sequence.text": "QVQLVESGGGLVQAGGSLRLSCAASGSTVSSNAMGWFRLAPGQERELVAAIDRGGSTYYADSVKGRFTISRDNAKNTVYLQMNSRKPEDTAVYYCNADYYHLNSGMYYWGQGTQVTVSS",
    "polyreactivity (PSR sort gate)": "low polyreactivity"
  },
  {
    "sequence.text": "QVQLVESGGGLVEAGGSLRLSCAASGSTFRWYAMGWYRQAPGKERELVAAISRSGASTYDSDSVKGRFTISRDNAKNTVYLQMNSLKPEDTAVYYCAAKQRTKGDYWRQGTQVTVSS",
    "polyreactivity (PSR sort gate)": "high polyreactivity"
  },
  {
    "sequence.text": "QVQLVESGGGLFLAGGSLRLSCAASGSTFWYNMGWYRQAPGKDRELVAAISNSSGRTYYADSVKGRCTISRDNPKNTDYLQMKSLKPEDTAVYYSAADPKLGSRTGFYYWGQGTQVTVSS",
    "polyreactivity (PSR sort gate)": "high polyreactivity"
  },
  {
    "sequence.text": "QVQLVESGGGLVQAGGSLRLSCAASGSTFYLYAMGWYRQAPGKERELVASITYSGASTYYADSVKGRFTISRDNAKNTVYLQMNSQKPEDTAVYYCAADQRGWFAVGSQRKYNYWGQGTQVTVSS",
    "polyreactivity (PSR sort gate)": "low polyreactivity"
  },
  {
    "sequence.text": "QVQHVESGGGLVQAGGSLRLSSAASGRTYWPNAMGWYRQAPGKERELVAAISSGGSTNYADSVKGSFTISRDNAKNTVYLQMNSLKPEDTAVYFWSADGQGDKYDYYGHNYWGQGTHVTVSS",
    "polyreactivity (PSR sort gate)": "low polyreactivity"
  },
  {
    "sequence.text": "QVQLVESGGGLVQAGGSLRLSCAASGNTFEYYVMGWYRQAPGKERELVAAITWSTGSTYYADSVKGRFTISRDNAKNTVYLQMNSLKPEDTAVYYCAALYYFIFGRPTRFDYWGQGTQVTVSS",
    "polyreactivity (PSR sort gate)": "low polyreactivity"
  },
  {
    "sequence.text": "QVQLVESGGGLVQAGGSLRLSCAASGSIFYINDAMGWYRQPPGKERELVAAISSSDGTTYYADSVKGRFTISRDNAKNTVYLQMNSLKPEDTAGYYCAAETRAVGYDGDYWGQGTQVTVSS",
    "polyreactivity (PSR sort gate)": "high polyreactivity"
  }
]
